- SYSTEM_UNDER_TEST: D(1A) dopamine receptor (Rattus norvegicus, UniProt P18901)
- Sequence (P18901 whole entry): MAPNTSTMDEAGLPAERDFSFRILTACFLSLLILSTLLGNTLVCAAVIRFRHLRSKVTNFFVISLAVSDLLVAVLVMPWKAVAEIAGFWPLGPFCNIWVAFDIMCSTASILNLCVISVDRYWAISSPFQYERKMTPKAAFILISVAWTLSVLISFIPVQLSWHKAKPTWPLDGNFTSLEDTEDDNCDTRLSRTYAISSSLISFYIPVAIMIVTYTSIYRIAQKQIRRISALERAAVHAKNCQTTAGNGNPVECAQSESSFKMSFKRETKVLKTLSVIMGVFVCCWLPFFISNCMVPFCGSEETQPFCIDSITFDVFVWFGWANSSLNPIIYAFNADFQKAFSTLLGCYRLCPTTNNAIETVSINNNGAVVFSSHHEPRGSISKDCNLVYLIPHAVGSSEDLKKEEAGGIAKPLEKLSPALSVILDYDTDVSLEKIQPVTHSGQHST
- METHOD_DESCRIPTION: In vitro ability to displace [3H]SCH-23390 binding from Dopamine 1 (D1) receptor in rat striatal membrane.
- Type: cell membranes
pKi: −log10 of the molar value.
Threshold rule: pKi greater than or equal to 6 is Criterion met; below that, Criterion not met.

Check the entry Cl.O=C1c2ccsc2CCC1CCN1CCC(c2noc3cc(F)ccc23)CC1 (stereo not given) : does pKi equal or exceed 6?
Criterion met

Check the entry Cl.O=C(CCCN1CCN(CCC2CCc3sccc3C2=O)CC1)c1ccc(F)cc1 (stereo not given) : does pKi equal or exceed 6?
Criterion not met

Check the entry Cl.O=C1CC(CN2CCC(C(=O)c3ccc(F)cc3)CC2)Cc2sccc21 (stereo not given) : does pKi equal or exceed 6?
Criterion met

----------
Exercise: for every item that follows, state its recorded Ki.
- SYSTEM_UNDER_TEST: 5-hydroxytryptamine receptor 2A (Rattus norvegicus)
- Sequence (P14842 whole entry): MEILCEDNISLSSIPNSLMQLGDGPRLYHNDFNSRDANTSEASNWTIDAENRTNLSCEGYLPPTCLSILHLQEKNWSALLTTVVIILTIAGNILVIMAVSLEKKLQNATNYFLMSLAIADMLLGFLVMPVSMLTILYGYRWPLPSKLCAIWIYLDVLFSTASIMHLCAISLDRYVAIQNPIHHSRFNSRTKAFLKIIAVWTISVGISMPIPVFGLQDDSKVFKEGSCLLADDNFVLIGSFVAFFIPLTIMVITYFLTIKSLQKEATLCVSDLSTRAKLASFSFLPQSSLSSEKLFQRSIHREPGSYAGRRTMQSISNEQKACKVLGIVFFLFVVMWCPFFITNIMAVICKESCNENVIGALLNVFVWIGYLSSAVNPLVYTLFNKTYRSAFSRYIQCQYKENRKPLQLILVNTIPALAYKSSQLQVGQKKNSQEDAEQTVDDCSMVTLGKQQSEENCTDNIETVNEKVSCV
- METHOD_DESCRIPTION: In vitro ability to displace [3H]ketanserin binding from 5-hydroxytryptamine 2A receptor in rat membrane.
Quick reminder: number only, in nM, skip the unit.

Result for O=C(CCCN1CCN(CCC2CCc3ccccc3C2=O)CC1)c1ccc(F)cc1 (stereo not given) , tested on 5-hydroxytryptamine receptor 2A (Rattus norvegicus), Ki: 72.4

Result for COc1ccccc1N1CCN(CC2CC(=O)c3ccccc32)CC1.Cl (stereo not given) , tested on 5-hydroxytryptamine receptor 2A (Rattus norvegicus), Ki: 891

Result for O=C(CCCN1CCN(CCC2Cc3ccccc3C2=O)CC1)c1ccc(F)cc1 (stereo not given) , tested on 5-hydroxytryptamine receptor 2A (Rattus norvegicus), Ki: 123

Result for O=C(CCCN1CCN(CCC2Cc3sccc3C2=O)CC1)c1ccc(F)cc1 (stereo not given) , tested on 5-hydroxytryptamine receptor 2A (Rattus norvegicus), Ki: 42.7

Result for Cl.O=C(c1ccc(F)cc1)C1CCN(CCC2CCc3ccsc3C2=O)CC1 (stereo not given) , tested on 5-hydroxytryptamine receptor 2A (Rattus norvegicus), Ki: 11.2

----------
- SYSTEM_UNDER_TEST: D(1A) dopamine receptor (Rattus norvegicus, UniProt P18901)
- METHOD_DESCRIPTION: In vitro ability to displace [3H]SCH-23390 binding from Dopamine receptor D1 in rat striatal membrane.
- Assay type: cell membranes
MEASUREMENT_TYPE: Ki

Note to self: Ki recorded for COc1ccccc1N1CCN(CCC2CCc3ccccc3C2=O)CC1 (stereo not drawn) was 1.48 µM

Note to self: Ki recorded for Cl.O=C(c1ccc(F)cc1)C1CCN(CCC2CCc3sccc3C2=O)CC1 (stereo not drawn) was 1.38 µM

Note to self: Ki recorded for Cl.O=C(CCCN1CCN(CC2CC(=O)c3ccccc32)CC1)c1ccc(F)cc1 (stereo not drawn) was 7.08 µM

Note to self: Ki recorded for COc1ccccc1N1CCN(CC2CC(=O)c3ccccc32)CC1.Cl (stereo not drawn) was 3.72 µM

Note to self: Ki recorded for O=C(CCCN1CCN(CCC2Cc3sccc3C2=O)CC1)c1ccc(F)cc1 (stereo not drawn) was 0.324 µM

Note to self: Ki recorded for O=C(O)C(=O)O.O=C(c1ccc(F)cc1)C1CCN(CCC2Cc3sccc3C2=O)CC1 (stereo not drawn) was 2.51 µM

Note to self: Ki recorded for Cl.O=C1CC(CN2CCC(C(=O)c3ccc(F)cc3)CC2)c2ccccc21 (stereo not drawn) was 1.55 µM

Note to self: Ki recorded for Cl.O=C1c2ccsc2CC1CCN1CCC(c2noc3cc(F)ccc23)CC1 (stereo not drawn) was 0.126 µM

Data provenance is ChEMBL document CHEMBL1132312.
